B1: Far upstream element-binding protein 3, residues 75 to 150; numbered along this chain, Q96I24 (parent)
chain: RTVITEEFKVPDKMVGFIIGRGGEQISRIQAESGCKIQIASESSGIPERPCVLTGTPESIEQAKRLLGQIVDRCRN

# Variants of: B1
# method: abundance fitness (aPCA) (normalised: wild type 0, dead -1); higher = more abundant; growth selection in yeast, the domain comes from the species named
# reported-conditions: Homo sapiens
reported-metric: abundance fitness
The reply should be a number, written without any unit.

See these solved cases before continuing.
{"variant-name": "L66G", "abundance fitness": -0.134}
{"variant-name": "P57H", "abundance fitness": -0.096}
{"variant-name": "Q38T", "abundance fitness": -0.047}
{"variant-name": "D72C", "abundance fitness": -0.138}
{"variant-name": "G68N", "abundance fitness": -0.043}

Problem: What value of abundance fitness has been reported for the following variant? V3D
Result: -0.111

Problem: What value of abundance fitness has been reported for the following variant? P11I
Result: -0.297
